System: SR
Test: NCI tumour cell line growth inhibition, 48 h
Activity calls are given as the source filed them. No stated cut-off is given here; in the data, active = GI50 up to about 1.1 µM and inactive = higher.
Returns: one label drawn from True for active, False for inactive

As a guide, the following entries are already answered.
Cc1ccc(-c2c(C#N)c(N)[nH]c(=S)c2C#N)cc1 = False
Nc1nc(N)c(N=Nc2ccc([As](=O)(O)O)c(O)c2)c(N)n1 = True
C/C(=C/CC[C@]1(CO)CC[C@]2(C)[C@H](CC[C@@H]3[C@@]4(C)CC[C@H](OC5OC(CO)C(O)C(O)C5OC5OC(CO)C(O)C(O)C5O)C(C)(C)[C@@H]4CC[C@]32C)[C@H]1O)CO (some centres not stated) = False
N#C/C(=C\c1cccc(Br)c1)c1nc2ccccc2c(=O)[nH]1 = False
Oc1ccccc1/C=N/c1ccc(Oc2ccc(Cl)cc2)c(Cl)c1 = False

Inquiry: Test call, this molecule: CN(/N=C/C=N/N(C)C1=NCCCCN1)C1=NCCCCN1
Reply text: False

Inquiry: Proceed to NC1=NC(c2ccccc2)CC(c2cc(Cl)ccc2O)=N1 (configuration not stated)
Reply text: False

Inquiry: Can you handle Cc1cccc(C)c1NC(=O)C(=O)C(c1ccccc1Cl)S(=O)(=O)Cc1ccccc1Cl (configuration not stated) next?
Reply text: False

Inquiry: What do you have for CN1CCC(C(=O)NNc2ccccc2)CC1 ?
Reply text: False

Inquiry: # iterate: CN(C)c1nc(Cl)c2c(-c3ccccc3)c(-c3ccccc3)oc2n1
Reply text: False

Inquiry: Let us now turn to O=c1[nH]ccc2c1ccn2C1CC(O)C(CO)O1 (configuration not stated)
Reply text: False
